tested on: CP268; assay: qHTS profiling for inhibitors of Plasmodium falciparum proliferation (AID 504749); also: nearly all actives have a fitted effect of over 60% in size; settings: P. falciparum in erythrocytes, SYBR Green DNA, 72 h; series mostly up to 28.7 µM
Inconclusive results are not listed. The source made the active and inactive calls. Calls follow the shape of the dose curve; as a rule, active = well fitted inhibition curve with a large enough effect; inconclusive = small, poorly fitted or top-dose-only effect; inactive = flat fitted curve, though single readings scatter.
One label from this list, please: yes (1) = active, no (0) = inactive

# count of solved cases: 5
CCCCNC(=O)NS(=O)(=O)c1ccc(C)cc1: no (0)
CCN1CCC[C@H]1CNC(=O)c1c(O)c(Cl)cc(Cl)c1OC: no (0)
NC(=O)c1cn(Cc2c(F)cccc2F)nn1: no (0)
C[N+](C)(C)CCCCCCCCCC[N+](C)(C)C: yes (1)
NC(N)=NC(=O)Cc1c(Cl)cccc1Cl: no (0)

query: So what was the verdict on `CN(C)C(=O)Oc1ccc[n+](C)c1` in this test?
result: no (0)

query: So what was the verdict on NC(Cc1ccc(Cl)cc1)C(=O)O (stereo unspecified) in this test?
result: no (0)

query: So what was the verdict on `CC1=NS(=O)(=O)c2cc(Cl)ccc2N1` in this test?
result: no (0)
